Please go through the items and note down their z-score.
test: blood-stage malaria parasite viability loss – strain 3D7, DAPI fluorescence, 100 nL, primary screen (AID 1184);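 note: parasites grown inside human red blood cells in medium with human serum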; conditions: P. falciparum 3D7 growth, 3 d, higher = more signal
// no unit string in output, number only

Query: Could you tell me which z-score is on file for O=C1NC(=O)C2C1C=CC(C(O)c1ccc(-c3ccccc3)s1)N2Nc1ccccn1 (stereo unspecified) ?
Reply: -0.169

Query: Could you tell me which z-score is on file for COC(=O)C(CC#Cc1ccc2c(c1)[C@]1(C(=O)N2)[C@H](c2ccc(OCCO)cc2)N2[C@H](c3ccccc3)[C@H](c3ccccc3)OC(=O)[C@H]2[C@@H]1C(=O)O)C(=O)OC ?
Reply: 0.663

Query: Could you tell me which z-score is on file for CN(C)C(=O)[C@@]1(CCC(=O)OC(C)(C)C)N=C(c2ccc(OCCCO)cc2)O[C@H]1c1ccccc1N=[N+]=[N-] ?
Reply: -2.36

Query: Could you tell me which z-score is on file for NC(=O)NCC#Cc1ccc2c(c1)[C@]1(C(=O)N2)[C@H](c2ccc(OCCO)cc2)N2[C@H](c3ccccc3)[C@H](c3ccccc3)OC(=O)[C@H]2[C@@H]1C(=O)N1CCN(c2ncccn2)CC1 ?
Reply: 0.149

Query: Could you tell me which z-score is on file for COCCCNC(=O)[C@@]1(Cc2ccccc2N=[N+]=[N-])N=C(c2ccc(OCCCO)cc2)O[C@H]1c1ccccc1CN=[N+]=[N-] ?
Reply: -2.23

Query: Could you tell me which z-score is on file for C[N+](C)(C)CCCCCCNC(=O)[C@H]1C[C@H]2C(=O)N3CCC[C@H]3C(=O)N2[C@H]1c1cccc(OCCO)c1 ?
Reply: 0.14

Query: Could you tell me which z-score is on file for CC(C)CCC[C@@H](C)[C@H]1CC[C@@]2(C)C3=C(CC[C@]12C)[C@@]1(C)CC[C@H](OC(=O)c2ccc(N)cc2)C(C)(C)C1CC3 (stereo partly specified) ?
Reply: 0.0753

Query: Could you tell me which z-score is on file for COc1ccc(C#Cc2ccc3c(c2)[C@]2(C(=O)N3)[C@H](C(N)=O)[C@H]3C(=O)O[C@H](c4ccccc4)[C@H](c4ccccc4)N3[C@@H]2c2ccc(O)cc2)cc1 ?
Reply: 0.0021

Query: Could you tell me which z-score is on file for CN(C)CCCCNC(=O)[C@H]1C[C@H]2C(=O)N[C@@H](CCCC[N+](C)(C)C)C(=O)N2[C@H]1c1cccc(OCCO)c1 ?
Reply: -0.0344

Query: Could you tell me which z-score is on file for [N-]=[N+]=NCc1ccccc1[C@H]1OC(c2ccc(OCCCO)cc2)=N[C@@]1(Cc1ccccc1N=[N+]=[N-])C(=O)NCCN1CCOCC1 ?
Reply: -2.21

Query: Could you tell me which z-score is on file for C=CCN1C(=O)[C@@]2(O[C@@H](CCn3cc([C@H](O)c4ccccc4)nn3)[C@H]([Si](C)(C)c3ccc(OC)cc3)[C@H]2C)c2cc(NC(=O)c3ccc(OC)cc3)ccc21 ?
Reply: -2.7

Query: Could you tell me which z-score is on file for COCCCNC(=O)[C@@H]1c2ccccc2C(=O)N(c2ccc(C)cn2)[C@H]1c1ccc(CO)cc1 ?
Reply: -1.38

Query: Could you tell me which z-score is on file for CN(C)CCCCCCNC(=O)[C@@H]1C[C@@H]2C(=O)NCC(=O)N2[C@@H]1c1ccc(O)cc1 ?
Reply: -0.107

Query: Could you tell me which z-score is on file for C[N+](C)(C)CCCC[C@@H]1NC(=O)[C@@H]2C[C@H](C(=O)NCCCCCNC(=O)CS)[C@H](c3cccc(OCCO)c3)N2C1=O ?
Reply: 0.0793

Query: Could you tell me which z-score is on file for COc1ccc([Si](C)(C)[C@@H]2[C@@H](CCO)O[C@]3(C(=O)N(Cc4ccc(N5C(=O)c6ccccc6Oc6ccccc65)cc4)c4ccccc43)[C@H]2C)cc1 ?
Reply: -2.77

Query: Could you tell me which z-score is on file for C=CCN1C(=O)[C@@]2(O[C@@H](CCO)[C@H]([Si](C)(C)c3ccc(OC)cc3)[C@H]2C)c2cc(NC(=O)[C@H](C)O)ccc21 ?
Reply: -2.83

Query: Could you tell me which z-score is on file for COCCOC(=O)N1C(=O)[C@@]2(c3cc(C#CCNC(N)=O)ccc31)[C@H](C(N)=O)[C@H]1C(=O)O[C@H](c3ccccc3)[C@H](c3ccccc3)N1[C@@H]2c1ccc(OCCO)cc1 ?
Reply: 0.101

Query: Could you tell me which z-score is on file for CC1=C2[C@@H](CCc3ccccc3)OB(O)C[C@@H]2[C@@H]2C(=O)C=CC(=O)[C@@H]2C1 ?
Reply: -1.15

Query: Could you tell me which z-score is on file for COC(=O)[C@@]1(Cc2ccccc2)[C@H]2c3cc(C(=O)N(C)C)n(Cc4ccccn4)c3C[C@H]2CN1C(=O)c1ccccc1 ?
Reply: -0.847

Query: Could you tell me which z-score is on file for CC(C)C[C@H]1NC(=O)[C@H](C)NC(=O)[C@@]23C(=O)N[C@@H](Cc4ccccc4)C2[C@H](C)[C@@]2(C)O[C@H]2C3/C=C/C/C=C\CNC1=O (stereo partly specified) ?
Reply: 0.96

Query: Could you tell me which z-score is on file for OCCCC1=CC(c2cccs2)N(Cc2cccc(OC(F)(F)F)c2)CC1 (stereo unspecified) ?
Reply: -0.717

Query: Could you tell me which z-score is on file for O=C1C[C@@](C(=O)NCc2ccccc2)(c2ccc([N+](=O)[O-])cc2)[C@@H](c2ccc(CO)cc2I)N1C1CCCCC1 ?
Reply: -1.45

Query: Could you tell me which z-score is on file for C=C[C@@H](O)[C@H]1CC(c2ccccc2)=NO1 ?
Reply: 0.99

Query: Could you tell me which z-score is on file for C=CCOC(=O)[C@@H]1[C@H]2C(=O)O[C@H](c3ccccc3)[C@H](c3ccccc3)N2[C@H](c2ccc(OCCOC(=O)[C@@H]3C[C@@H]4C(=O)N[C@@H](CCCCNC(C)=O)C(=O)N4[C@@H]3c3ccc(O)cc3)cc2)[C@@]12C(=O)Nc1ccc(I)cc12 ?
Reply: -1.61

Query: Could you tell me which z-score is on file for NC(=O)NCC#Cc1ccc2c(c1)[C@]1(C(=O)N2)[C@H](c2ccc(O)cc2)N2[C@H](c3ccccc3)[C@H](c3ccccc3)OC(=O)[C@H]2[C@@H]1C(=O)NC[C@H](O)c1ccccc1 ?
Reply: -0.547

Query: Could you tell me which z-score is on file for CCOC(=O)C1=CC[C@@H](c2ccccc2)N(S(=O)(=O)c2ccc(C)cc2)[C@H]1C=C(C)C ?
Reply: -2.17

Cited source for all entries: PubChem BioAssay
